molecular target: p110δ/p85α (Homo sapiens (Human), UniProt O00329); assay: PI 3-Kinase (human) HTRF assay, p110δ/p85α; assay type: biochemical; conditions: read-out: PI3K δ IC50
Sequence (O00329 whole entry): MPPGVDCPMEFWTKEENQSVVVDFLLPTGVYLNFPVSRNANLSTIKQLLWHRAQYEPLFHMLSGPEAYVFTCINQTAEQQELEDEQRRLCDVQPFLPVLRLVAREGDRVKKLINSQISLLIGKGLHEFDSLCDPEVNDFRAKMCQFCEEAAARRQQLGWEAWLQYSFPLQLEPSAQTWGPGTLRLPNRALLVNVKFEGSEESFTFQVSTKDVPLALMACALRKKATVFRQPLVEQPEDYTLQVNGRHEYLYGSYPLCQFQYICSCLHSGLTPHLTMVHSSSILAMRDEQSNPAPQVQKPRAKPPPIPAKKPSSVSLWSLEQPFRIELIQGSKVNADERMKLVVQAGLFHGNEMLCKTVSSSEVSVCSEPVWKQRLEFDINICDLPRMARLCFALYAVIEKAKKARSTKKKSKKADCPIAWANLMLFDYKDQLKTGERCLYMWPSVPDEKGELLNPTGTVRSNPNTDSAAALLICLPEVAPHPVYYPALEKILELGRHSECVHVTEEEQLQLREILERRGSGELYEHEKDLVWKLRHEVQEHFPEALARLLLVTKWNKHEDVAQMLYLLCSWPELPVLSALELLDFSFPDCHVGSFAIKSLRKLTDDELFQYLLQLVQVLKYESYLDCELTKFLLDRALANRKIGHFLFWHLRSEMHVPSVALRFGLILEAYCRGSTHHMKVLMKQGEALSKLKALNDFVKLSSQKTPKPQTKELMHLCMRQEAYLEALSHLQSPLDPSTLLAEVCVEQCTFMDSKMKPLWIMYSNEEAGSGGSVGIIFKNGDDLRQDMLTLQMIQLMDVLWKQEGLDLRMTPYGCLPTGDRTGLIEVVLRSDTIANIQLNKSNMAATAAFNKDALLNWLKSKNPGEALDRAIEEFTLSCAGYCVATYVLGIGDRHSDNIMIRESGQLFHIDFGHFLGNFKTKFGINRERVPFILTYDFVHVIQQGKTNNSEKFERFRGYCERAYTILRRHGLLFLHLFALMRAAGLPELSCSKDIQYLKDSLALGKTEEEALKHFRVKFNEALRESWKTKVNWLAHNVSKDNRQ
Sequence (P27986 whole entry partner): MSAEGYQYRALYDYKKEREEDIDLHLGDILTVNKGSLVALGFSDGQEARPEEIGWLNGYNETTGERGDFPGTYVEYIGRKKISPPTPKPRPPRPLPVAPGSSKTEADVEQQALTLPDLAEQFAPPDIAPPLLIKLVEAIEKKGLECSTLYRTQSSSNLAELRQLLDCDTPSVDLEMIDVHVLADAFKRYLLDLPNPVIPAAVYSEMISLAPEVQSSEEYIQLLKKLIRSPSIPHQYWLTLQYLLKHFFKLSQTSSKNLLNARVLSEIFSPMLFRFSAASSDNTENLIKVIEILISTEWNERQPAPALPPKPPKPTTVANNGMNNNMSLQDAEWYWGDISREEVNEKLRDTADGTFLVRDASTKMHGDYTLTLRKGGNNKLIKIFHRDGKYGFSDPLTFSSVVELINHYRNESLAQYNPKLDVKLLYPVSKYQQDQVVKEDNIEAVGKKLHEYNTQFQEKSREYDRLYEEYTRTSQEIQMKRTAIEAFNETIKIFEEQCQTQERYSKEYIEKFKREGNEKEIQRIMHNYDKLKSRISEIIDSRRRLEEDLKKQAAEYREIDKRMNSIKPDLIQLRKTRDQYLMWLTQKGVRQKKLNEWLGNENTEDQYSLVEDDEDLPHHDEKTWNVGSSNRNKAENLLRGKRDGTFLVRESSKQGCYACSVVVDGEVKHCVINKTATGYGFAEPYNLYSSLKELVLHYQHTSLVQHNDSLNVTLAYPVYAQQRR
pIC50: −log10 of the molar value.
measuredMetric: pIC50

Illustrative cases are given below, each with its answer.
Nc1nc2cc(-c3ccc4ncc(N5CCC(N)CC5)nc4c3)ccc2o1 [compound 168] : > 5.00
CN1CCN(C(=O)C2CN(c3cnc4ccc(-c5ccc6oc(N)nc6c5)cc4n3)C2)CC1 [compound 170] : > 6.00
CCn1cnc2ccc(-c3ccc4oc(N)nc4c3)cc2c1=O [compound 183] : > 5.00

I need pIC50 for every entry listed below, if you could help.
1. Nc1nc2cc(-c3ccc4ncnc(N5CCC(O)CC5)c4c3)ccc2o1 [compound 29]
2. CC(=O)NC1CCN(C(=O)c2cnc3ccc(-c4ccc5oc(N)nc5c4)cn23)CC1 [compound 147]
3. CN1CCC(NC(=O)c2cnc3ccc(-c4ccc5oc(N)nc5c4)cn23)CC1 [compound 159]

OUTPUT:
1. > 7.00
2. > 5.00
3. > 7.00

I need pIC50 for every entry listed below, if you could help.
1. Nc1nc2cc(-c3ccc4ncnc(NC5CCN(C(=O)C6CC6)CC5)c4c3)ccc2o1 [compound 89]
2. Nc1ccc2cc(-c3ccc4nccc(-c5ccncc5)c4c3)ccc2n1 [compound 5]
3. Nc1nc2cc(-c3ccc4ncc(C(=O)Nc5cccnc5)n4c3)ccc2o1 [compound 190]
4. CN1CCC(N(C)c2ncnc3ccc(-c4ccc5oc(N)nc5c4)cc23)CC1 [compound 155]
5. Nc1nc2cc(-c3ccc4ncc(NC5CCOCC5)nc4c3)ccc2o1 [compound 96]
6. Nc1nc2cc(-c3ccc4ncc(-c5ccc6nc(N)oc6c5)n4c3)ccc2o1 [compound 50]
7. Nc1nc2cc(-c3ccc4ncc(NCCN5CCOCC5)nc4c3)ccc2o1 [compound 133]

OUTPUT:
["> 7.00", "> 5.00", "> 6.00", "> 6.00", "> 6.00", "> 5.00", "> 6.00"]

I need pIC50 for every entry listed below, if you could help.
1. Nc1nc2cc(-c3ccc4ncc(-c5cccnc5)n4c3)ccc2o1 [compound 37]
2. CC(C)(C#N)c1ccc(Nc2ncnc3ccc(-c4ccc5oc(N)nc5c4)cc23)cc1 [compound 102]
3. Nc1noc2cc(-c3ccc4nccc(-c5ccncc5)c4c3)ccc12 [compound 16]
4. C[C@@H]1CN(c2cnc3ccc(-c4ccc5oc(N)nc5c4)cc3n2)CCN1 [compound 179]
5. CNC(=O)N1CCN(c2cnc3ccc(-c4ccc5oc(N)nc5c4)cc3n2)CC1 [compound 154]

OUTPUT:
> 7.00
> 6.00
> 5.00
> 5.00
> 5.00
